# Test system: longitudinal muscle of human vas deferens
# protocol_summary: New molecules against contractions to high K+ (120 mM), longitudinal muscle
# test_settings: Homo sapiens; contractions evoked by K+ (120 mM); preliminary data, mean, n=2-3; read-out: Functional inhibitory potencies (IC50 values), Longitudinal muscle
Items are presented alongside their recorded IC50.

compound: CN1CCCC1CCN(c1ccccc1)c1ccccc1 (centres unmarked)
value_units: µM
IC50: 4.5
//
compound: CN1CCCCC1CNCCC(c1ccccc1)c1ccccc1 (centres unmarked)
value_units: µM
IC50: 3.02
//
compound: CC(NCCN(c1ccccc1)c1ccccc1)c1ccccc1 (centres unmarked)
value_units: µM
IC50: 15
//
compound: CN1CCCCC1CCN(c1ccccc1)c1ccccc1 (centres unmarked)
value_units: µM
IC50: 6.25
//
compound: CC1CCCCN1CCC(c1ccccc1)c1ccccc1 (centres unmarked)
value_units: µM
IC50: 3
